plasma stability values for the compounds below.
system: mouse plasma stability, percent remaining; assay: second set, compound stability in murine plasma, biochemical ADME (AID 624419); details: at 1 µM
Provide the reading as a plain figure in %.

// known answers, use as guide
* COc1ccc(OC)c(-c2nnc3n2N=C(c2ccc(OC)c(OC)c2)CS3)c1 | 100
* Cc1ccc(S(=O)(=O)n2c(N)nc3ccccc32)cc1 | 100
* O=c1[nH]c(SCc2ccc(Cl)cc2)nc2c1CCC2 | 100
* Brc1cc2c(cc1C1Nc3ccccc3C3C=CCC31)OCO2 (stereo not drawn) | 100
* Cn1cnc([N+](=O)[O-])c1Sc1ncnc2nc[nH]c12 | 84.1

Now look at this one.
Field: plasma stability (mouse plasma stability, percent remaining). Entry: `O=C1CCCC2=C1C1(CCCC1)N=C(Nc1nc3ccccc3o1)N2` 100
